test system: HeLa Kyoto; test: solubility change mitosis vs G1/S (difference of NP-40 vs SDS log2 ratios) (log2 ratio difference); higher = more soluble in mitosis;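 also: synchronized HeLa Kyoto cells (double thymidine block for G1/S, nocodazole release for mitosis), protein amounts in NP-40 versus SDS lysates quantified by mass spectrometry, three biological replicates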
observed_property: solubility change mitosis (log2)
The answer should be written as a number, with no unit following it.

MEGNRDEAEKCVEIAREALNAGNREKAQRFLQKAEKLYPLPSARALLEIIMKNGSTAGNSPHCRKPSGSGDQSKPNCTKDSTSGSGEGGKGYTKDQVDGVLSINKCKNYYEVLGVTKDAGDEDLKKAYRKLALKFHPDKNHAPGATDAFKKIGNAYAVLSNPEKRKQYDLTGNEEQACNHQNNGRFNFHRGCEADITPEDLFNIFFGGGFPSGSVHSFSNGRAGYSQQHQHRHSGHEREEERGDGGFSVFIQLMPIIVLILVSLLSQLMVSNPPYSLYPRSGTGQTIKMQTENLGVVYYVNKDFKNEYKGMLLQKVEKSVEEDYVTNIRNNCWKERQQKTDMQYAAKVYRDDRLRRKADALSMDNCKELERLTSLYKGG [DNAJB14] : -0.15

Field request: solubility change mitosis (log2) | item: MKLLSLVAVVGCLLVPPAEANKSSEDIRCKCICPPYRNISGHIYNQNVSQKDCNCLHVVEPMPVPGHDVEAYCLLCECRYEERSTTTIKVIIVIYLSVVGALLLYMAFLMLVDPLIRKPDAYTEQLHNEEENEDARSMAAAAASLGGPRANTVLERVEGAQQRWKLQVQEQRKTVFDRHKMLS [TMEM9]
0.292
